Recorded values, source PubChem BioAssay (NCATS).

Below is a list of entries, each paired with its recorded Potency value.
TGT: Glucocorticoid receptor (Homo sapiens) (UniProt P04150)
Sequence (P04150 whole entry, looked up): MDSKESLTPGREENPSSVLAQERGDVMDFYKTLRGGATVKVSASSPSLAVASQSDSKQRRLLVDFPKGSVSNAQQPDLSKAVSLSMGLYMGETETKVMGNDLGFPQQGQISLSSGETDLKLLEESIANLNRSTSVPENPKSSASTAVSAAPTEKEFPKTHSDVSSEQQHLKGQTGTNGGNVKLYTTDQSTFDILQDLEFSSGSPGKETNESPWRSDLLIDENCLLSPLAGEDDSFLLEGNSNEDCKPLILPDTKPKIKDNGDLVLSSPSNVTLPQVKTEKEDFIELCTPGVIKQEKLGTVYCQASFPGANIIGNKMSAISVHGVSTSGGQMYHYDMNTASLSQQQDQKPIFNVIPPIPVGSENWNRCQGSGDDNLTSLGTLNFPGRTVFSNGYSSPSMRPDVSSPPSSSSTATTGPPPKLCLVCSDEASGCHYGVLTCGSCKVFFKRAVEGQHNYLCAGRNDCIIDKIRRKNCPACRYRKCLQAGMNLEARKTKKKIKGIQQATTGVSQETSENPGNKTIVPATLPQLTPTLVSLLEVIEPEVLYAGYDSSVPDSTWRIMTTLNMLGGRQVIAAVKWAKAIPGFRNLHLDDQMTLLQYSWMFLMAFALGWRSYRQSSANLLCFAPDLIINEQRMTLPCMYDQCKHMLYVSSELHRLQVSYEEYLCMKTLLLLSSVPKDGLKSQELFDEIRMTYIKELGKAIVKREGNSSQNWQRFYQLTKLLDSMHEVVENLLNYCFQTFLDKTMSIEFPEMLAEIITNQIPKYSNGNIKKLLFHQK
METHOD_DESCRIPTION: GR-GFP Redistribution (AID 450); also: potency is read from the fitted curve at half-maximal effect
ASSAY_CONDITIONS: U2OS GR-GFP nuclear translocation, laser cytometry, 2 h
Active and inactive are the calls of the source.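 The calls were made as follows: active = compounds whose dose series gives a full or clear partial fitted curve of increased nuclear translocation; inconclusive = weak partial curve or effect only at the top dose; inactive = no dose-dependent translocation response.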
QUANTITY_MEASURED: Potency

{"SMILES_DATA": "Cc1cnc(CNc2nc(-c3ccccc3C)nc3ccccc23)cn1", "DATA_VALUE": "> 46 µM (inactive)"}
{"SMILES_DATA": "COc1ccc(-c2nc3cnc(N(C)C)nc3n(Cc3ccc(F)cc3)c2=O)cc1", "DATA_VALUE": "> 9.22 µM (inactive)"}
{"SMILES_DATA": "Cn1c(=O)cnc2cnc(Nc3ccccc3)nc21", "DATA_VALUE": "> 9.22 µM (inactive)"}
{"SMILES_DATA": "COc1cccc(-c2ccc3ncnc(NCCN4CCOCC4)c3c2)c1", "DATA_VALUE": "> 46 µM (inactive)"}
{"SMILES_DATA": "c1ccc2c(NC3CC3)nc(-c3ccoc3)nc2c1", "DATA_VALUE": "> 46 µM (inactive)"}
{"SMILES_DATA": "Cc1cnc(CNc2nc(-c3ccc4c(c3)OCO4)nc3ccccc23)cn1", "DATA_VALUE": "> 46 µM (inactive)"}
{"SMILES_DATA": "CN(C)Cc1ccccc1-c1nccc(Nc2ccc(F)cc2)n1", "DATA_VALUE": "> 46 µM (inactive)"}
{"SMILES_DATA": "CCNc1ncc2nc(-c3ccc(OC)cc3)c(=O)n(Cc3cccc(OC)c3)c2n1", "DATA_VALUE": "> 9.22 µM (inactive)"}

====

TGT: Ubiquitin carboxyl-terminal hydrolase 1 (Homo sapiens)
METHOD_DESCRIPTION: Inhibitors of USP1/UAF1: Pilot qHTS (AID 504865); also: nearly all actives have a fitted effect of over 35% in size
ASSAY_CONDITIONS: purified USP1/UAF1, Ub-rhodamine cleavage fluorescence; series mostly up to 54.9 µM
Records with an inconclusive call do not appear. Activity calls are given as the source filed them. The call rests on the fitted dose curve; in most records, active means well fitted inhibition curve with a large enough effect; inconclusive means small, poorly fitted or top-dose-only effect; inactive means flat fitted curve, though single readings scatter.
Classes used: active, inactive

{"COMPOUND": "COc1cccc(-c2ccc3ncnc(NC4CC4)c3c2)c1", "TGT": "Ubiquitin carboxyl-terminal hydrolase 1 (Homo sapiens)", "ASSIGNED_LABEL": "inactive"}
{"COMPOUND": "O=c1ccc2ccc(O)cc2o1", "TGT": "Ubiquitin carboxyl-terminal hydrolase 1 (Homo sapiens)", "ASSIGNED_LABEL": "inactive"}
{"COMPOUND": "CN(C)Cc1ccccc1-c1cncnc1NCc1ccccc1", "TGT": "Ubiquitin carboxyl-terminal hydrolase 1 (Homo sapiens)", "ASSIGNED_LABEL": "inactive"}
{"COMPOUND": "CC(=O)NCCNc1nc(-c2ccccc2C)nc2ccccc12", "TGT": "Ubiquitin carboxyl-terminal hydrolase 1 (Homo sapiens)", "ASSIGNED_LABEL": "inactive"}
{"COMPOUND": "Cc1noc(C)c1-c1cncnc1NC1CC1", "TGT": "Ubiquitin carboxyl-terminal hydrolase 1 (Homo sapiens)", "ASSIGNED_LABEL": "inactive"}
{"COMPOUND": "Cc1ccccc1-c1cncnc1NCc1cccnc1", "TGT": "Ubiquitin carboxyl-terminal hydrolase 1 (Homo sapiens)", "ASSIGNED_LABEL": "inactive"}
{"COMPOUND": "COc1cccc(Nc2ncc3nc(-c4cccs4)c(=O)n(-c4ccccc4)c3n2)c1", "TGT": "Ubiquitin carboxyl-terminal hydrolase 1 (Homo sapiens)", "ASSIGNED_LABEL": "active"}
{"COMPOUND": "C[C@@]12CCC(=O)C=C1CC[C@H]1[C@H]3CC[C@](O)(C(=O)CO)[C@]3(C)CC(=O)[C@@H]12", "TGT": "Ubiquitin carboxyl-terminal hydrolase 1 (Homo sapiens)", "ASSIGNED_LABEL": "inactive"}
{"COMPOUND": "N#Cc1cccc(-c2nccc(NCc3cccnc3)n2)c1", "TGT": "Ubiquitin carboxyl-terminal hydrolase 1 (Homo sapiens)", "ASSIGNED_LABEL": "inactive"}
{"COMPOUND": "CN(C)Cc1ccccc1-c1cncnc1Nc1ccc(F)cc1", "TGT": "Ubiquitin carboxyl-terminal hydrolase 1 (Homo sapiens)", "ASSIGNED_LABEL": "inactive"}
{"COMPOUND": "N#CCCn1c(=O)c(-c2cc(F)cc(F)c2)nc2cnc(Nc3ccccc3)nc21", "TGT": "Ubiquitin carboxyl-terminal hydrolase 1 (Homo sapiens)", "ASSIGNED_LABEL": "inactive"}
{"COMPOUND": "CN1[C@@H]2CC[C@H]1CC(OC(=O)[C@@H](O)c1ccccc1)C2 (some centres undefined)", "TGT": "Ubiquitin carboxyl-terminal hydrolase 1 (Homo sapiens)", "ASSIGNED_LABEL": "inactive"}
{"COMPOUND": "CNc1ncnc2ccc(-c3ccc4c(c3)OCO4)cc12", "TGT": "Ubiquitin carboxyl-terminal hydrolase 1 (Homo sapiens)", "ASSIGNED_LABEL": "inactive"}
{"COMPOUND": "N#CCCn1c(=O)c(-c2cccs2)nc2cnc(Nc3ccccc3)nc21", "TGT": "Ubiquitin carboxyl-terminal hydrolase 1 (Homo sapiens)", "ASSIGNED_LABEL": "inactive"}
{"COMPOUND": "CC(=O)Oc1cc(OC(C)=O)c2c(c1)OC(c1ccc(OC(C)=O)c(OC(C)=O)c1)C(OC(C)=O)C2 (centres undefined)", "TGT": "Ubiquitin carboxyl-terminal hydrolase 1 (Homo sapiens)", "ASSIGNED_LABEL": "inactive"}
{"COMPOUND": "CN1CCN(c2ncc3nc(-c4ccc(F)cc4)c(=O)n(C4CC4)c3n2)CC1", "TGT": "Ubiquitin carboxyl-terminal hydrolase 1 (Homo sapiens)", "ASSIGNED_LABEL": "inactive"}
{"COMPOUND": "COc1ccccc1-c1nc(NCCN2CCOCC2)c2ccccc2n1", "TGT": "Ubiquitin carboxyl-terminal hydrolase 1 (Homo sapiens)", "ASSIGNED_LABEL": "inactive"}
{"COMPOUND": "CCNc1ncc2nc(-c3ccc(F)cc3)c(=O)n(C[C@H]3CCCO3)c2n1", "TGT": "Ubiquitin carboxyl-terminal hydrolase 1 (Homo sapiens)", "ASSIGNED_LABEL": "inactive"}
{"COMPOUND": "C[C@@]12C[C@@H](O)[C@H]3[C@@H](CCC4=CC(=O)CC[C@]43C)[C@H]1CC[C@H]2C(=O)CO", "TGT": "Ubiquitin carboxyl-terminal hydrolase 1 (Homo sapiens)", "ASSIGNED_LABEL": "inactive"}
{"COMPOUND": "COc1ccc(CNc2ccnc(-c3ccc(C(=O)N(C)C)cc3)n2)c(OC)c1", "TGT": "Ubiquitin carboxyl-terminal hydrolase 1 (Homo sapiens)", "ASSIGNED_LABEL": "inactive"}
{"COMPOUND": "COc1ccc(-c2nc3cnc(N(C)C)nc3n(C3CC3)c2=O)cc1", "TGT": "Ubiquitin carboxyl-terminal hydrolase 1 (Homo sapiens)", "ASSIGNED_LABEL": "inactive"}
{"COMPOUND": "CCCCCN(CCCCC)C(=O)[C@H](CCC(=O)O)NC(=O)c1ccc(Cl)c(Cl)c1", "TGT": "Ubiquitin carboxyl-terminal hydrolase 1 (Homo sapiens)", "ASSIGNED_LABEL": "inactive"}
{"COMPOUND": "O=c1c(-c2ccc(Cl)cc2)nc2cnc(N3CCOCC3)nc2n1Cc1ccc(F)cc1", "TGT": "Ubiquitin carboxyl-terminal hydrolase 1 (Homo sapiens)", "ASSIGNED_LABEL": "inactive"}
{"COMPOUND": "Cc1cnc(CNc2ncncc2-c2ccccc2C)cn1", "TGT": "Ubiquitin carboxyl-terminal hydrolase 1 (Homo sapiens)", "ASSIGNED_LABEL": "inactive"}
{"COMPOUND": "CCNc1ncc2nc(-c3ccc(F)cc3)c(=O)n(-c3ccccc3)c2n1", "TGT": "Ubiquitin carboxyl-terminal hydrolase 1 (Homo sapiens)", "ASSIGNED_LABEL": "inactive"}
{"COMPOUND": "COc1ccccc1CNc1cc(-c2ccccc2OC)ncn1", "TGT": "Ubiquitin carboxyl-terminal hydrolase 1 (Homo sapiens)", "ASSIGNED_LABEL": "inactive"}
{"COMPOUND": "COc1ccc(CNc2ncnc3ccc(-c4ccc(C(=O)N(C)C)cc4)cc23)c(OC)c1", "TGT": "Ubiquitin carboxyl-terminal hydrolase 1 (Homo sapiens)", "ASSIGNED_LABEL": "inactive"}
{"COMPOUND": "O=c1c(-c2ccc(Cl)cc2)nc2cnc(N3CCNCC3)nc2n1-c1ccccc1", "TGT": "Ubiquitin carboxyl-terminal hydrolase 1 (Homo sapiens)", "ASSIGNED_LABEL": "inactive"}
{"COMPOUND": "CN(C)c1ncc2nc(-c3ccccc3)c(=O)n(CCc3ccccc3)c2n1", "TGT": "Ubiquitin carboxyl-terminal hydrolase 1 (Homo sapiens)", "ASSIGNED_LABEL": "inactive"}
{"COMPOUND": "COc1ccc(-c2nc3cnc(N4CCOCC4)nc3n(Cc3cccs3)c2=O)cc1", "TGT": "Ubiquitin carboxyl-terminal hydrolase 1 (Homo sapiens)", "ASSIGNED_LABEL": "inactive"}
{"COMPOUND": "N#CCCn1c(=O)c(-c2ccccc2)nc2cnc(Nc3ccccc3)nc21", "TGT": "Ubiquitin carboxyl-terminal hydrolase 1 (Homo sapiens)", "ASSIGNED_LABEL": "inactive"}
{"COMPOUND": "Cc1ccccc1-c1ccc2ncnc(N(C)C)c2c1", "TGT": "Ubiquitin carboxyl-terminal hydrolase 1 (Homo sapiens)", "ASSIGNED_LABEL": "inactive"}
{"COMPOUND": "O=c1c(-c2cccs2)nc2cncnc2n1-c1ccccc1", "TGT": "Ubiquitin carboxyl-terminal hydrolase 1 (Homo sapiens)", "ASSIGNED_LABEL": "inactive"}
{"COMPOUND": "COc1ccc(CNc2ncncc2-c2cccc(NS(C)(=O)=O)c2)c(OC)c1", "TGT": "Ubiquitin carboxyl-terminal hydrolase 1 (Homo sapiens)", "ASSIGNED_LABEL": "inactive"}
